In this section we review reported IC50 values for a set of molecules.
# System: 556581-035-R-J1-PDC complex spheroid growth
# EXPERIMENT: Anticancer human tumor 556581-035-R-J1-PDC patient-derived ovarian carcinoma cell line growth inhibition [AhR]
# SETUP CONDITIONS: curve of compound

>>> test_result("CCN(c1cc(-c2ccc(CN3CCOCC3)cc2)cc(C(=O)NCc2c(C)cc(C)[nH]c2=O)c1C)C1CCOCC1")
"> 3 µM"

Lab note: next molecule to report on.
Entry Nc1ccn(C2OC(CO)C(O)C2(F)F)c(=O)n1 (stereo unspecified) has what IC50?
< 0.0316 µM

###

In this section we review reported viability, T/C values for a set of compounds.
# Test system: 556581-035-R-J1-PDC complex spheroid growth
# EXPERIMENT: Anticancer human tumor 556581-035-R-J1-PDC cell line growth inhibition [AhR];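 for viability, T/C: compound exposure lasted 7 days; 100% = DMSO vehicle control growth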
# SETUP CONDITIONS: second compound 10 µM; first compound 0.1 µM; stronger effect = lower value

>>> test_result("Nc1ccccc1NC(=O)c1ccc(CNC(=O)OCc2cccnc2)cc1 + Cc1ccccc1N=Nc1ccc(NC(=O)c2ccnn2C)c(C)c1")
"95.9%"

Entry COc1cc(C2c3cc4c(cc3C(OC3OC5COC(C)OC5C(O)C3O)C3COC(=O)C23)OCO4)cc(OC)c1O (centres undefined) + CC(CO)NC(=O)c1cc(-c2ccc(Cl)cc2)nn(-c2cnn(C)c2)c1=O has what viability, T/C?
98.8%

Further, for O=C(C=Cc1cccc(S(=O)(=O)Nc2ccccc2)c1)NO + Cc1ccccc1N=Nc1ccc(NC(=O)c2ccnn2C)c(C)c1 ?
83.2%

Further, for CC1COCCN1c1cc(C2(S(C)(=N)=O)CC2)nc(-c2ccnc3[nH]ccc23)n1 (centres undefined) + Cc1ccccc1N=Nc1ccc(NC(=O)c2ccnn2C)c(C)c1 ?
97.2%
